Listed here are binders together with their documented glycan array binding signal (z-score).
Biological target: Gal(b1-3)GlcNAc(b1-3)Gal(b1-4)GlcNAc(b1-2)Man(a1-3)[Gal(b1-3)GlcNAc(b1-3)Gal(b1-4)GlcNAc(b1-2)Man(a1-6)]Man(b1-4)GlcNAc(b1-4)GlcNAc
Experiment: glycan array binding signal (z-score within array); higher = stronger binding
Settings: glycan notation: IUPAC condensed, linker removed
The entries come from a sample that favours the strongest signals as a whole.

binder	glycan array binding signal (z-score)
CFEM-PPm (Pichia pastoris), F2QPV1 (protein) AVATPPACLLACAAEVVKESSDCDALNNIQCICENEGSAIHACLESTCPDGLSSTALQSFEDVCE	-0.305
BDCA-2 (Homo sapiens), Q8WTT0 (protein) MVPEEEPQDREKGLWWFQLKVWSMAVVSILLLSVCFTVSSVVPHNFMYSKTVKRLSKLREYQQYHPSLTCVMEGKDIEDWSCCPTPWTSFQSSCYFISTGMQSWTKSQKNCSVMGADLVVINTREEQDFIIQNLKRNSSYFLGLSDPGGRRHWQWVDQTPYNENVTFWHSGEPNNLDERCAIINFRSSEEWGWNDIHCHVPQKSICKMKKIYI	-0.163
XTP3-B-MRH1 (Homo sapiens), Q96DZ1 (protein) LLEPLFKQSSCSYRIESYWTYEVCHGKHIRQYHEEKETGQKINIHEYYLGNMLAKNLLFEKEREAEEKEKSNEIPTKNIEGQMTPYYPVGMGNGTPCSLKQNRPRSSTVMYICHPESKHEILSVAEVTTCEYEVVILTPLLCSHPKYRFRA	0.941
CpGal16 (Clavelina picta) (protein) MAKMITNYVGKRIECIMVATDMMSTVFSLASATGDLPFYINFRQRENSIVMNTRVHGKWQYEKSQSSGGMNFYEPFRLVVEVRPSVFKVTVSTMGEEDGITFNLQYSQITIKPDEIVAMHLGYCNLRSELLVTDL	3.83
CSA (Cytisus scoparius), P29257 (protein) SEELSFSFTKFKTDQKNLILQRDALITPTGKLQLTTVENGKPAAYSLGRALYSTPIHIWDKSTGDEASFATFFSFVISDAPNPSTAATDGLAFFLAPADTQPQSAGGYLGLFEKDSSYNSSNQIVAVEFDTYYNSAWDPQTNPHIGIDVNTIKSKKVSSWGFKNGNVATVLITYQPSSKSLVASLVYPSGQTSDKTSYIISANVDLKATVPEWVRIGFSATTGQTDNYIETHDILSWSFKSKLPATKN	-0.157
PpFlo2 (Pichia pastoris) (protein) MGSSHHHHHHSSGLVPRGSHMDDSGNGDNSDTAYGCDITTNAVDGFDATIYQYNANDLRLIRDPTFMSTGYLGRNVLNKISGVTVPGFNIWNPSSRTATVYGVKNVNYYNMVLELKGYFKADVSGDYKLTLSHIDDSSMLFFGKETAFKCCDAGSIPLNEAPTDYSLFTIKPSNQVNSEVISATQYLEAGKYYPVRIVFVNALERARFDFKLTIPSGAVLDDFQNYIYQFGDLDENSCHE	-0.174
